Data credit: paper PMC9371724

study-system: T1, HA69 peptide on HLA DQB1*06:02/DQA1*01:02 (DQ0602) (human)
T1 peptide: AMERNAGSGIIISDT
measurement-protocol: activation reporter or marker
readout-label: binding result

Consider the following illustrative entries.
binder	binding result
TCR CAANLDNFNKFYF / CATSRGIQPNEKLFF (TCR) alpha TRAV25 TRAJ21 CDR3: CAANLDNFNKFYF beta TRBV15 TRBJ1-4 CDR3: CATSRGIQPNEKLFF	recognises
TCR821 (TCR) alpha TRAV26-1 TRAJ23 CDR3: CIVMLTTNQGGKLIF beta TRBV19 TRBJ2-4 CDR3: CASSPGLAGGGSIQYF	recognises
TCR43 (TCR) alpha TRAV13-1 TRAJ43 CDR3: CAASDNDMRF beta TRBV4-2 TRBJ1-2 CDR3: CASSQETQGRNYGYTF	recognises
TCR CIVRVLTNQGGKLIF / CSAGSGLGGYNEQFF (TCR) alpha TRAV26-1 TRAJ23 CDR3: CIVRVLTNQGGKLIF beta TRBV20-1 TRBJ2-1 CDR3: CSAGSGLGGYNEQFF	recognises
…-1 (TCR) alpha TRAV9-2 TRAJ4 CDR3: CALPSLSGGYNKLIF beta TRBV7-8 TRBJ1-3 CDR3: CASSLAGNGNTIYF	no recognition

For each listed entry, give its binding result.
1. TCR CALGPGDNQGGKLIF / CASSLAQAPAGETQYF (TCR) alpha TRAV9-2 TRAJ23 CDR3: CALGPGDNQGGKLIF beta TRBV11-1 TRBJ2-5 CDR3: CASSLAQAPAGETQYF
2. TCR CIVRVGTNMDSNYQLIW / CASSKSYNEQFF (TCR) alpha TRAV26-1 TRAJ33 CDR3: CIVRVGTNMDSNYQLIW beta TRBV19 TRBJ2-1 CDR3: CASSKSYNEQFF

Output line:
1: recognises; 2: recognises

For each listed entry, give its binding result.
1. TCR285 (TCR) alpha TRAV13-1 TRAJ49 CDR3: CAATPGRTGNQFYF beta TRBV4-2 TRBJ2-5 CDR3: CASSQGQGDETQYF
2. …-1 (TCR) alpha TRAV2 TRAJ40 CDR3: CAVEDRDSGTYKYIF beta TRBV18 TRBJ2-1 CDR3: CASSPSRGAPEYNEQFF

Output line:
1. recognises
2. no recognition
